Where these numbers come from: patent US10870638B2

system: soybean (Glycine max Merr.); experiment: Test Example 1: foliar treatment, growth inhibition rate on 14th day; type: in vivo; details: active ingredient amount 31 g/ha, 14th day after application
endpoint name: Growth inhibition rate (%) Soybean
Express it in %; write the number only.

Query CC(=O)Oc1c(C)nn(C)c(=O)c1-c1cc(Oc2ncc(Br)cc2Cl)ccc1C [Compound 2-135] on soybean (Glycine max Merr.); Growth inhibition rate (%) Soybean returned: 0

Query CC(=O)Oc1c(C(F)(F)F)nn(C)c(=O)c1-c1cc(Oc2ncc(C(F)(F)F)cc2Cl)ccc1C [1-142] on soybean (Glycine max Merr.); Growth inhibition rate (%) Soybean returned: 40

----------
Below is a list of entries, each paired with its recorded Growth inhibition rate (%) Corn value.
test system: corn (Zea mays L.); assay: Test Example 1: foliar treatment, growth inhibition rate on 14th day; type: in vivo; conditions: active ingredient amount 31 g/ha, 14th day after application
Express it in %; write the number only.

Illustrative cases are given below, each with its answer.
> print(dat)
                                   compound  experimental.result
1  Cc1ccc(Oc2ncc(C(F)(F)F)cc2Cl)cc1-c1c(O)c(C)nn(C)c1=O [1-1]                   90
2  CCn1nc(C)c(OC(C)=O)c(-c2cc(Oc3ncc(C(F)(F)F)cc3Cl)ccc2C)c1=O [1-165]                  100
3  CCc1ccc(Oc2nc3ccc(Cl)cc3o2)cc1-c1c(OC(C)=O)cnn(C)c1=O [Compound 2-160]                  100
4  CCc1ccc(Oc2nc3cc(Cl)ccc3o2)cc1-c1c(O)c(C)nn(C)c1=O [Compound 2-161]                   90
5  Cc1ccc(Oc2nc3ccc(Cl)cc3o2)cc1-c1c(O)cnn(CC(F)F)c1=O [Compound 2-179]                   75

The measured Growth inhibition rate (%) Corn associated with CC(=O)Oc1c(C)nn(C)c(=O)c1-c1cc(Oc2ccc(C(F)(F)F)cc2)ccc1C [Compound 2-118] reads 20

The measured Growth inhibition rate (%) Corn associated with CC(=O)Oc1c(C)nn(C)c(=O)c1-c1cc(Oc2ncc(Cl)cc2F)ccc1C [Compound 2-59] reads 90

The measured Growth inhibition rate (%) Corn associated with COC(=O)OC(C)Oc1c(C)nn(C)c(=O)c1-c1cc(Oc2ncc(C(F)(F)F)cc2Cl)ccc1C (stereo not shown) [1-130] reads 95

The measured Growth inhibition rate (%) Corn associated with CCOC(=O)Oc1c(C)nn(C)c(=O)c1-c1cc(Oc2cnc3cc(Cl)ccc3n2)ccc1C [Compound 3-35] reads 60

The measured Growth inhibition rate (%) Corn associated with Cc1ccc(Oc2cnc3cc(Cl)ccc3n2)cc1-c1c(OC(=O)C2CC2)c(C)nn(C)c1=O [Compound 3-37] reads 45

----------
system: barnyardgrass (Echinochloa crus-qalli L.); assay: Test Example 1: foliar treatment, growth inhibition rate on 14th day; assay type: in vivo; details: active ingredient amount 31 g/ha, 14th day after application
endpoint name: Growth inhibition rate (%) Barnyardgrass
Express it in %; write the number only.

Illustrative cases are given below, each with its answer.
> print(dat)
                                   compound                             endpoint.name  value.unit  experimental.result
1  Cc1ccc(Oc2nc3ccc(Cl)cc3o2)cc1-c1c(O)cnn(CC(F)F)c1=O  Growth inhibition rate (%) Barnyardgrass           %                   88
2  CC(=O)Cn1ncc(O)c(-c2cc(Oc3ncc(C(F)(F)F)cc3Cl)ccc2C)c1=O  Growth inhibition rate (%) Barnyardgrass           %                   90
3  CCOC(=O)Oc1c(C)nn(C)c(=O)c1-c1cc(Oc2cnc3cc(Cl)ccc3n2)ccc1C  Growth inhibition rate (%) Barnyardgrass           %                  100

Consider now this further compound.
Query CCc1ccc(Oc2nc3cc(Cl)ccc3o2)cc1-c1c(O)c(C)nn(C)c1=O [Compound 2-161] on barnyardgrass (Echinochloa crus-qalli L.); Growth inhibition rate (%) Barnyardgrass returned: 100

----------
Below is a list of entries, each paired with its recorded Growth inhibition rate (%) Crabgrass value.
test system: crabgrass (Digitaris sanquinalis L.); experiment: Test Example 2: soil application on the day after sowing, growth inhibition rate on 14th day; type: in vivo; details: active ingredient amount 500 g/ha, 14th day after application
Express it in %; write the number only.

Illustrative cases are given below, each with its answer.
> print(dat)
                                   molecule  experimental.result
1  Cc1ccc(Oc2cnc3ccccc3c2)cc1-c1c(O)c(C)nn(C)c1=O [Compound 2-112]                  100
2  CC(=O)Oc1c(C)nn(C)c(=O)c1-c1cc(Oc2ccc3ccccc3n2)ccc1C [Compound 2-142]                   98
3  Cc1ccc(Oc2ccc3ccccc3n2)cc1-c1c(O)c(C)nn(C)c1=O [Compound 2-108]                   98

Query CC(=O)Oc1c(C)nn(C)c(=O)c1-c1cc(Oc2cnc3ccccc3c2)ccc1C [Compound 2-146] on crabgrass (Digitaris sanquinalis L.); Growth inhibition rate (%) Crabgrass returned: 100

----------
Below is a list of entries, each paired with its recorded Growth inhibition rate (%) Wild oat value.
system: wild oat (Avena fatua L.); assay: Test Example 1: foliar treatment, growth inhibition rate on 14th day; assay type: in vivo; settings: active ingredient amount 31 g/ha, 14th day after application, visual, 0 = non-treated, 100 = complete kill
Express it in %; write the number only.

> print(dat)
                                   compound                        endpoint.name  experimental.result
1  Cc1ccc(Oc2cnc3cc(Cl)ccc3n2)cc1-c1c(OC(C)OC(=O)OC2CCCCC2)c(C)nn(C)c1=O (stereo not shown) [Compound 3-76]  Growth inhibition rate (%) Wild oat                    0
2  C#CCOc1c(C)nn(C)c(=O)c1-c1cc(Oc2cnc3cc(Cl)ccc3n2)ccc1C [Compound 3-77]  Growth inhibition rate (%) Wild oat                   60
3  Cc1ccc(Oc2cnc3cc(Cl)ccc3n2)cc1-c1c(OC(=S)N(C)C)c(C)nn(C)c1=O [Compound 3-67]  Growth inhibition rate (%) Wild oat                  100

Consider now this further compound.
The measured Growth inhibition rate (%) Wild oat associated with Cc1ccc(Oc2cnc3cc(Cl)ccc3n2)cc1-c1c(OC(=O)C(F)(F)F)c(C)nn(C)c1=O [Compound 3-52] reads 20

----------
tested on: wild oat (Avena fatua L.); assay: Test Example 1: foliar treatment, growth inhibition rate on 14th day; format: in vivo; conditions: active ingredient amount 31 g/ha, 14th day after application, visual, 0 = non-treated, 100 = complete kill
endpoint name: Growth inhibition rate (%) Wild oat
Express it in %; write the number only.

Illustrative cases are given below, each with its answer.
> print(dat)
                            compound.smiles                        endpoint.name  experimental.result
1  Cc1ccc(Oc2cnc3cc(Cl)ccc3n2)cc1-c1c(OC(=O)COc2ccccc2)c(C)nn(C)c1=O  Growth inhibition rate (%) Wild oat                   75
2  Cc1ccc(Oc2cnc3cc(Cl)ccc3n2)cc1-c1c(OC(=O)CC2CCCCC2)c(C)nn(C)c1=O  Growth inhibition rate (%) Wild oat                   99

The measured Growth inhibition rate (%) Wild oat associated with C#CCOC(=O)Oc1c(C)nn(C)c(=O)c1-c1cc(Oc2cnc3cc(Cl)ccc3n2)ccc1C reads 83

The measured Growth inhibition rate (%) Wild oat associated with C#CC(=O)Oc1c(C)nn(C)c(=O)c1-c1cc(Oc2cnc3cc(Cl)ccc3n2)ccc1C reads 98

The measured Growth inhibition rate (%) Wild oat associated with Cc1ccc(Oc2cnc3cc(Cl)ccc3n2)cc1-c1c(OS(=O)(=O)C2CC2)c(C)nn(C)c1=O reads 60

The measured Growth inhibition rate (%) Wild oat associated with CSCCC(=O)Oc1c(C)nn(C)c(=O)c1-c1cc(Oc2cnc3cc(Cl)ccc3n2)ccc1C reads 98

The measured Growth inhibition rate (%) Wild oat associated with Cc1ccc(Oc2cnc3cc(Cl)ccc3n2)cc1-c1c(OCC#N)c(C)nn(C)c1=O reads 40

The measured Growth inhibition rate (%) Wild oat associated with Cc1ccc(Oc2cnc3cc(Cl)ccc3n2)cc1-c1c(OC(=O)N(C)C)c(C)nn(C)c1=O reads 75

The measured Growth inhibition rate (%) Wild oat associated with Cc1ccc(Oc2cnc3cc(Cl)ccc3n2)cc1-c1c(OC(=S)Oc2ccccc2)c(C)nn(C)c1=O reads 99

The measured Growth inhibition rate (%) Wild oat associated with Cc1ccc(Oc2cnc3cc(Cl)ccc3n2)cc1-c1c(OC(=O)Cc2ccccc2)c(C)nn(C)c1=O reads 99

The measured Growth inhibition rate (%) Wild oat associated with Cc1ccc(Oc2cnc3cc(Cl)ccc3n2)cc1-c1c(OC(=O)c2ccccn2)c(C)nn(C)c1=O reads 99

The measured Growth inhibition rate (%) Wild oat associated with COCCOC(=O)Oc1c(C)nn(C)c(=O)c1-c1cc(Oc2cnc3cc(Cl)ccc3n2)ccc1C reads 99
